The reported measurements were obtained from ChEMBL document CHEMBL1123528.

species on record: Oryctolagus cuniculus; assay: Ability to stimulate peripheral prejunctional dopaminergic receptors by 50% inhibition of vasoconstrictor response to field stimulation in isolated perfused rabbit ear artery; assay type: functional
The label is true (1) for EC50 below 200 nM and false (0) for EC50 equal to or exceeding 200 nM.

| compound | label-class |
| --- | --- |
| CCCN(CCC)CCc1ccc(O)cc1 | true (1) |
| NCCc1ccc(O)c2c1CC(=O)N2 | true (1) |
| CCCN(CCC)CCc1ccc(O)c2c1CC(=O)N2C | false (0) |
| CCCN(CCC)CCc1ccc(O)c(NC=O)c1 | false (0) |
| CCCN(CCC)CCc1ccc(O)c2c1C(C)(O)C(=O)N2 (configuration not stated) | false (0) |
| CCCN(CCC)CCc1ccc(O)c2c1C(C)(C)C(=O)N2 | false (0) |
| CCCN(CCC)CCc1ccc2c(c1)NC(=O)C2 | false (0) |
| CCCN(CCC)CCc1ccc(O)c(NC(C)=O)c1 | false (0) |
| CCCN(CCC)CCc1cccc(O)c1 | false (0) |
| CCCN(CCC)CCc1ccc(OC)c2c1CC(=O)N2 | false (0) |
| CCCN(CCc1ccc(O)cc1)CCc1cccc2c1CC(=O)N2 | true (1) |
| CCCN(CCC)CCc1ccc(O)c2c1C(C)C(=O)N2 (configuration not stated) | true (1) |
| NCCc1ccc(O)c(O)c1 [DOPAMINE] | true (1) |
| O=C1Cc2c(CCNCCc3ccc(O)cc3)ccc(O)c2N1 | true (1) |
| NCCc1ccc2c(c1)CC(=O)N2 | false (0) |
| CCCN(CCC)CCc1ccc2c(c1)CC(=O)N2 | false (0) |
| CCCN(CCC)CCc1cccc2c1CC(=O)N2 [ROPINIROLE] | true (1) |
